target: Ba/F3 EGFR-Del19/C797S (Homo sapiens, UniProt P00533, C797S, cells depend on it, form not given); assay: Ba/F3 viability assay (CellTiter-Glo), DC; assay type: cell-based; settings: anti-proliferation, read-out: BaF3 DC IC50
Sequence (P00533 with tags, fused parts or gaps DEL746-750/C797S, form open): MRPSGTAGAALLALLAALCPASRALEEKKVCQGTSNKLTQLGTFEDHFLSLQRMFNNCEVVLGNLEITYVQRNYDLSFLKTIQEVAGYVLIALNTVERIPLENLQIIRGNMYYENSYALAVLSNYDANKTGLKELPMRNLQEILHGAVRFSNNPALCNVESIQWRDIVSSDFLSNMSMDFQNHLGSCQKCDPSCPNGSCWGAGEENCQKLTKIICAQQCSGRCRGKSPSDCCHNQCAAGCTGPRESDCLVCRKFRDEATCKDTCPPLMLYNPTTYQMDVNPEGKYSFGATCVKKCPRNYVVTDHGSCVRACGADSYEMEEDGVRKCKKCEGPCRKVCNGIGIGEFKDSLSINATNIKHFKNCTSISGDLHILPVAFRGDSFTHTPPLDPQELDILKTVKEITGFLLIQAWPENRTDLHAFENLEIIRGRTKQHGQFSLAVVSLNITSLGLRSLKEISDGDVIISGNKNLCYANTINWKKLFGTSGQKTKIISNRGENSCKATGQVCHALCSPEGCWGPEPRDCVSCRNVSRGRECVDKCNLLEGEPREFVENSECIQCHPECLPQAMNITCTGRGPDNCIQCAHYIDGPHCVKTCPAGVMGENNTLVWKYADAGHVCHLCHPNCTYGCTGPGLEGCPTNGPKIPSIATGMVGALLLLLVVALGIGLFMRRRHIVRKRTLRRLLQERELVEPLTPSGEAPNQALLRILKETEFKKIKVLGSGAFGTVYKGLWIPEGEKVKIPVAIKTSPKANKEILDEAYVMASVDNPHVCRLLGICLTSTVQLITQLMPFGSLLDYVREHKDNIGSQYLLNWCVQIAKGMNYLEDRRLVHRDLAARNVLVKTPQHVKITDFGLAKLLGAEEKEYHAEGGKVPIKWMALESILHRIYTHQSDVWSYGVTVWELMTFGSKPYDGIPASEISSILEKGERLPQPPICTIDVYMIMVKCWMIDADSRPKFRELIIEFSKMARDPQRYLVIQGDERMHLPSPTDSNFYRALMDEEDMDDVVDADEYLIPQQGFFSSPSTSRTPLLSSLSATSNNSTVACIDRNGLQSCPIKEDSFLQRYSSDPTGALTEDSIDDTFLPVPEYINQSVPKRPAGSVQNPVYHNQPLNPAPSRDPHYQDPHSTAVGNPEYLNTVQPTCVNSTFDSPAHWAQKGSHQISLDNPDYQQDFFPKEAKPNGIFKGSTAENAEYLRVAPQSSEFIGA
quantity.name: GI50

Could you share which GI50 value was measured for C[C@H]1CCOc2c(cnn2C)-c2nccc(n2)Nc2cc3c(cn2)c(-c2cc(OCCN(C)C)ccc2F)nn31 ?
10 to 100 nM

Also check Cc1nc(-c2nn3c4cc(ncc24)Nc2ccnc(n2)-c2cnn(C)c2OCC[C@@H]3C)sc1CN1CCOCC1
< 10 nM

Also check C[C@H]1CCOc2c(cnn2C)-c2nccc(n2)Nc2cc3c(cn2)c(-c2cccc(OCCN4CCOCC4)c2)nn31
10 to 100 nM

Also check C[C@H]1CCOc2c(cnn2C)-c2nccc(n2)Nc2cc3c(cn2)c(N2CC[C@@H](N(C)CCF)C2)nn31
10 to 100 nM

Also check C[C@H]1CCOc2c(cnn2C)-c2nccc(n2)Nc2cc3c(cn2)c(-c2cc(CN4CCOCC4)n(C)n2)nn31
10 to 100 nM

Also check CC1COc2c(cnn2C)-c2nccc(n2)Nc2cc3c(cn2)c(N2CCC2)nn3C1 (stereo not drawn)
10 to 100 nM

Also check CC1CCOc2c(cnn2C)-c2nccc(n2)Nc2cc3c(cn2)c(N2CC(C(C)(C)O)C2)nn31 (stereo not drawn)
10 to 100 nM

Also check CCCn1cc(-c2nn3c4cc(ncc24)Nc2ccnc(n2)-c2cnn(C)c2OCC[C@@H]3C)cc1CN1CCOCC1
< 10 nM

Also check CC1CCCOc2c(cnn2C)-c2nccc(n2)Nc2cc3c(cn2)c(N2CCC2)nn31 (stereo not drawn)
10 to 100 nM

Also check CC(C)N1CCN(CC2CCN(c3nn4c5cc(ncc35)Nc3ccnc(n3)-c3cnn(C)c3OCC[C@@H]4C)C2)CC1 (stereo partly drawn)
< 10 nM

Also check C[C@H]1CCOc2c(cnn2C)-c2nccc(n2)Nc2cc3c(cn2)c(-c2ccc(CN4CCN(C5COC5)CC4)n2C)nn31
< 10 nM

Also check C[C@H]1CCOc2c(cnn2C)-c2nccc(n2)Nc2cc3c(cn2)c(-c2ncc(CN(C)C)s2)nn31
10 to 100 nM

Also check CCCN(C)Cc1ccc(-c2nn3c4cc(ncc24)Nc2ccnc(n2)-c2cnn(C)c2OCC[C@@H]3C)n1C
< 10 nM

Also check C[C@H]1CCOc2c(cnn2C)-c2nccc(n2)Nc2cc3c(cn2)c(-c2cnn(CCN4CCOCC4)c2)nn31
10 to 100 nM

Also check C[C@H]1CCOc2c(cnn2C)-c2nccc(n2)Nc2cc3c(cn2)c(N2CC[C@H](N(C)CCCF)C2)nn31
10 to 100 nM

----------
target: Ba/F3 EGFR-Del19/T790M (Homo sapiens, UniProt P00533, T790M, cells depend on it, form not given); test: Ba/F3 viability assay (CellTiter-Glo), DT; type: cell-based; conditions: anti-proliferation, read-out: BaF3 DT IC50
Sequence (P00533 with tags, fused parts or gaps DEL746-750/T790M, form open): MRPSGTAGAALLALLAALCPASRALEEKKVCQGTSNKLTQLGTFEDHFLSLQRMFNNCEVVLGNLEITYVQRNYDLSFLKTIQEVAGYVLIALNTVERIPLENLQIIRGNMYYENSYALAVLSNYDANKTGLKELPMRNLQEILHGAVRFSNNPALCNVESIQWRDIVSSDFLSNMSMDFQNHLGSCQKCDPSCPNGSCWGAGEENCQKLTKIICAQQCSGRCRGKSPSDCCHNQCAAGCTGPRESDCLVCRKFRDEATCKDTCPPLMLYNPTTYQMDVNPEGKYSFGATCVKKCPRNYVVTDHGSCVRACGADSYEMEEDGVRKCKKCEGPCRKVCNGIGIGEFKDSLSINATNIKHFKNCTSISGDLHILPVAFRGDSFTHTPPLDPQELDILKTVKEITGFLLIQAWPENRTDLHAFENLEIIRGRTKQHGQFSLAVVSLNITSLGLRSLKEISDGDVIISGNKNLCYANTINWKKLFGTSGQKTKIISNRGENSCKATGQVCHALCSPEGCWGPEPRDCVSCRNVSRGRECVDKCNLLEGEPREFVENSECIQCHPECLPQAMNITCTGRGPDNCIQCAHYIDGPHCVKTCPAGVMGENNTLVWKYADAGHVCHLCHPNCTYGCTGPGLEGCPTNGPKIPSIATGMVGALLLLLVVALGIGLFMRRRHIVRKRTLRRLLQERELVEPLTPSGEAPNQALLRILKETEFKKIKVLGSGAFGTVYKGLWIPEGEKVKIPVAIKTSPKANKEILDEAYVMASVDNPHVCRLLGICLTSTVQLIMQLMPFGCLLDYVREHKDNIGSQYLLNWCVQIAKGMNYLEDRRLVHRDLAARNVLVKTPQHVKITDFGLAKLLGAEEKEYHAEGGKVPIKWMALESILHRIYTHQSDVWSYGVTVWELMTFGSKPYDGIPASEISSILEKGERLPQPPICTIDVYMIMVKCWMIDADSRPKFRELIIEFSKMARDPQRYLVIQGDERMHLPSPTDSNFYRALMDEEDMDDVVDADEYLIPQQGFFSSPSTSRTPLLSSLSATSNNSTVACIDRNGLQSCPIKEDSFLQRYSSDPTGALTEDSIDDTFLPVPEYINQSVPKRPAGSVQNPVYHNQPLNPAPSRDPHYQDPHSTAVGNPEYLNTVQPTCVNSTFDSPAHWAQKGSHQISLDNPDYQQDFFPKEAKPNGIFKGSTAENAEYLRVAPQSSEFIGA
quantity.name: GI50

Could you share which GI50 value was measured for CC1COc2c(cnn2C)-c2nccc(n2)Nc2cc3c(cn2)c(N2CCC2)nn3C1 (centres unmarked) ?
10 to 100 nM

Also check CCC1CCOc2c(cnn2C)-c2nccc(n2)Nc2cc3c(cn2)c(N2CCC2)nn31 (centres unmarked)
10 to 100 nM

Also check C[C@H]1CCOc2c(cnn2C)-c2nccc(n2)Nc2cc3c(cn2)c(-c2ccncc2)nn31
10 to 100 nM

Also check CC1CCOc2ccncc2-c2nccc(n2)Nc2cc3c(cn2)c(N2CCC2)nn31 (centres unmarked)
< 10 nM

Also check CC1CCOc2c(cnn2C)-c2nccc(n2)Nc2cc3c(cn2)c(N2CCC2)nn31 (centres unmarked)
10 to 100 nM

----------
Hi there, I'd appreciate the recorded GI50 for every entry that follows.
molecular target: Ba/F3 EGFR-Del19/T790M/C797S (Homo sapiens, UniProt P00533, T790M/C797S, cells depend on it, form not given); test: Ba/F3 viability assay (CellTiter-Glo), DTC; assay type: cell-based; conditions: anti-proliferation, read-out: BaF3 DTC IC50
Sequence (P00533 with tags, fused parts or gaps DEL746-750/T790M/C797S, form open): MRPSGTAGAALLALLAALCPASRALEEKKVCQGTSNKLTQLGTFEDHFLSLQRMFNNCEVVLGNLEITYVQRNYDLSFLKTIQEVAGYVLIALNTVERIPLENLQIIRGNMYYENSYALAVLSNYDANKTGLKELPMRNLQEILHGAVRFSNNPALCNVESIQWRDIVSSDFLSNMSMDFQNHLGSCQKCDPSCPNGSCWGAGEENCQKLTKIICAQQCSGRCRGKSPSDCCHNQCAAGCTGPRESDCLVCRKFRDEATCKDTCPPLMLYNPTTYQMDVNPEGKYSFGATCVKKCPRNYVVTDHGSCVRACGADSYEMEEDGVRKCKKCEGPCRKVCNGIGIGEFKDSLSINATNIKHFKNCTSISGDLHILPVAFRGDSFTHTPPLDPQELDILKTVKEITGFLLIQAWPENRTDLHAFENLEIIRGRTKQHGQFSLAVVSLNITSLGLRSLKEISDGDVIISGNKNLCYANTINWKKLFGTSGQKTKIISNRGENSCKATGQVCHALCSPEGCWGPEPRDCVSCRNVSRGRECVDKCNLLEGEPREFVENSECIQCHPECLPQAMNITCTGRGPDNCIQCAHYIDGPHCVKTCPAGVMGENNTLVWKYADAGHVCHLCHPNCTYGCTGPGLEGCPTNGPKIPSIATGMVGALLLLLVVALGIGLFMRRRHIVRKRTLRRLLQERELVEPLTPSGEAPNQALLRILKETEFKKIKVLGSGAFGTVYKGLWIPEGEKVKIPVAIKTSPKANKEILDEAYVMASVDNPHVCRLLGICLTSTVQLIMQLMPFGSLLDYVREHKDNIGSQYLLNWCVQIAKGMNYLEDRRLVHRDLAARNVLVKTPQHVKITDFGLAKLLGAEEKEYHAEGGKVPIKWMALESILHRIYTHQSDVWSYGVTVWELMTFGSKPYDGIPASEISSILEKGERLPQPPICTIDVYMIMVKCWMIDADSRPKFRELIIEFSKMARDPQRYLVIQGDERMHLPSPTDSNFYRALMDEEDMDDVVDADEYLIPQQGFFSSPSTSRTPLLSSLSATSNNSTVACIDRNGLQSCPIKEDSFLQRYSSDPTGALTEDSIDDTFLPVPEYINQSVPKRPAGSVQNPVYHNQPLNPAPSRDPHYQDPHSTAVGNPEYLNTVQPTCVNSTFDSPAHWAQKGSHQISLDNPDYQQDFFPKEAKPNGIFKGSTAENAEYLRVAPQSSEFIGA

Could you share which GI50 value was measured for CCN(CC)CCOc1ccc(C)c(-c2nn3c4cc(ncc24)Nc2ccnc(n2)-c2cnn(C)c2OCC[C@@H]3C)c1 [(159)] ?
100 to 1000 nM

Also check CC(C)NCc1ccc(-c2nn3c4cc(ncc24)Nc2ccnc(n2)-c2cnn(C)c2OCC[C@@H]3C)n1C [(188)]
< 10 nM

Also check C[C@H]1CCOc2c(cnn2C)-c2nccc(n2)Nc2cc3c(cn2)c(-c2ccc(CN(C)C)cc2)nn31 [(176)]
< 10 nM

Also check CCCN1CCN(Cc2cnc(-c3nn4c5cc(ncc35)Nc3ccnc(n3)-c3cnn(C)c3OCC[C@@H]4C)s2)CC1 [(142)]
< 10 nM

Also check CCn1nccc1-c1nn2c3cc(ncc13)Nc1ccnc(n1)-c1cnn(C)c1OCCCC2C (stereo not shown) [(86)]
10 to 100 nM

Also check CCN(CC)CCOc1cccc(-c2nn3c4cc(ncc24)Nc2ccnc(n2)-c2cnn(C)c2OCC[C@@H]3C)c1C [(158)]
100 to 1000 nM

Also check Cc1nn(CCC(C)(C)O)cc1-c1nn2c3cc(ncc13)Nc1ccnc(n1)-c1cnn(C)c1OCCCC2C (stereo not shown) [(89)]
10 to 100 nM

----------
molecular target: Ba/F3 EGFR-Del19/C797S (Homo sapiens, UniProt P00533, C797S, cells depend on it, form not given); test: Ba/F3 viability assay (CellTiter-Glo), DC; assay type: cell-based; conditions: anti-proliferation, read-out: BaF3 DC IC50
quantity.name: GI50

Could you share which GI50 value was measured for C[C@H]1CCOc2c(cnn2C)-c2nccc(n2)Nc2cc3c(cn2)c(-c2cccc(CN(C)C)n2)nn31 ?
10 to 100 nM

Also check C[C@H]1CCOc2c(cnn2C)-c2nccc(n2)Nc2cc3c(cn2)c(-c2cccc(N4CCC(O)CC4)c2)nn31
10 to 100 nM

Also check C[C@H]1CCOc2c(cnn2C)-c2nccc(n2)Nc2cc3c(cn2)c(-c2ccc(CN4CCCCC4)n2C)nn31
< 10 nM

Also check C[C@H]1CCOc2c(cnn2C)-c2nccc(n2)Nc2cc3c(cn2)c(-c2cnn(CCCN4CCOCC4)c2)nn31
10 to 100 nM

Also check C[C@H]1CCOc2c(cnn2C)-c2nccc(n2)Nc2cc3c(cn2)c(-c2ccc(CN(C)C)cc2)nn31
10 to 100 nM

Also check C[C@H]1CCOc2c(cnn2C)-c2nccc(n2)Nc2cc3c(cn2)c(-c2cc(CN4CCN(C)CC4)n(C)n2)nn31
10 to 100 nM

Also check C[C@@H]1CCCOc2c(cnn2C)-c2nccc(n2)Nc2cc3c(cn2)c(N2CCC2)nn31
100 to 1000 nM

Also check C[C@H]1CCOc2c(cnn2C)-c2nccc(n2)Nc2cc3c(cn2)c(-c2ncc(CN4CCOCC4)s2)nn31
10 to 100 nM

Also check Cc1cc(-c2nn3c4cc(ncc24)Nc2ccnc(n2)-c2cnn(C)c2OCC[C@@H]3C)oc1CN(C)C
< 10 nM

Also check C[C@H]1CCOc2c(cnn2C)-c2nccc(n2)Nc2cc3c(cn2)c(-c2ccncc2)nn31
10 to 100 nM

Also check CC(C)N1CCN(Cc2ccc(-c3nn4c5cc(ncc35)Nc3ccnc(n3)-c3cnn(C)c3OCC[C@@H]4C)n2C)CC1
< 10 nM

Also check C[C@H]1CCOc2c(cnn2C)-c2nccc(n2)Nc2cc3c(cn2)c(N2CC[C@H](CN(C)CCF)C2)nn31
< 10 nM

Also check C[C@H]1CCOc2c(cnn2C)-c2nccc(n2)Nc2cc3c(cn2)c(-c2ccc(CN(C)CCF)n2C)nn31
10 to 100 nM

Also check CCN(CC)CCOc1ccc(C)c(-c2nn3c4cc(ncc24)Nc2ccnc(n2)-c2cnn(C)c2OCC[C@@H]3C)c1
100 to 1000 nM

Also check CCn1nccc1-c1nn2c3cc(ncc13)Nc1ccnc(n1)-c1cnn(C)c1OCCCC2C (stereo not drawn)
10 to 100 nM

----------
Test system: Ba/F3 Parental
Experiment: Ba/F3 viability assay (CellTiter-Glo), parental
Assay type: cell-based
Settings: Mus musculus, BaF3, anti-proliferation
Source text: Inhibition of cell proliferation can be studied using Ba/F3 viability assays, including the Promega CellTiter-Glo cell viability assay. This assay can be used to study the effect of compounds described herein in the following assays: (1) Ba/F3 Parental; (2) Ba/F3 EGFR-Del19/T790M; (3); Ba/F3 EGFR-Del19/C797S; and (4) Ba/F3 EGFR-Del19/T790M/C797S.
pIC50: −log10 of the molar value.
quantity.name: pIC50

Could you share which pIC50 value was measured for C[C@H]1CCOc2c(cnn2C)-c2nccc(n2)Nc2cc3c(cn2)c(-c2ccc(CN4CCN(CCCF)CC4)n2C)nn31 ?
6.00 to 7.00

Also check C[C@H]1CCOc2c(cnn2C)-c2nccc(n2)Nc2cc3c(cn2)c(-c2cccc(CN(C)C)n2)nn31
6.00 to 7.00

Also check CC(C)N1CCN(Cc2ccc(-c3nn4c5cc(ncc35)Nc3ccnc(n3)-c3cnn(C)c3OCC[C@@H]4C)n2C)CC1
6.00 to 7.00

Also check CC1CCOc2c(cnn2CC2CC2)-c2nccc(n2)Nc2cc3c(cn2)c(N2CCC2)nn31 (stereo not shown)
6.00 to 7.00

FYI, the data here is from patent US20230148005A1.
